// thresholds for melting point classes: low band (below 90 °C), middle band (90 °C to below 200 °C), high band (200 °C or more)

compound="ClC/C=C\\CCl [cis-1,4-dichloro-2-butene]" group="low band"
compound="Oc1ccc(Cl)c(Cl)c1 [3,4-Dichlorophenol]" group="low band"
compound="CC(=O)OC1CCC2C3CCC4CC(CC(=O)O)CCC4(C)C3CCC12C (stereo not given) [[17-(acetyloxy)androstan-3-yl]acetic acid]" group="middle band"
compound=COc1ccc(C(=O)Nc2ccc(-c3ccc4nn(-c5ccccc5)nc4c3)cc2)cc1 group="middle band"
compound=C=CCC1(CC(C)C)C(=O)NC(=O)NC1=O group="middle band"
compound="COC(=O)[C@H](Cc1ccccc1)NC(=O)[C@@H](N)CC(=O)O [Methyl L-alpha-aspartyl-L-phenylalaninate]" group="high band"

// next entry
// bin(item) where item = `C=CCN`
low band

* * *

Rule: melting point of 90 °C or more gives criterion met; anything lower gives criterion not met.

Some entries whose results are on file:
compound="N#Cc1c(N)sc2c1CCCC2 [2-amino-4,5,6,7-tetrahydrobenzo[b]thiophene-3-carbonitrile]" group="criterion met"
compound=C1=CCCC1 group="criterion not met"
compound="Cc1cc(O)n2ncnc2n1 [7-hydroxy-5-methyl[1,2,4]triazolo[1,5-a]pyrimidine]" group="criterion met"
compound="NC(=O)c1ccc([N+](=O)[O-])cc1 [4-Nitrobenzamide]" group="criterion met"
compound="C[C@H]1O[C@@H](O[C@H]2[C@@H](O)C[C@H](O[C@H]3[C@@H](O)C[C@H](O[C@H]4CC[C@@]5(C)[C@H](CC[C@@H]6[C@@H]5C[C@@H](O)[C@]5(C)C(C7=CC(=O)OC7)CC[C@]65O)C4)O[C@@H]3C)O[C@@H]2C)C[C@H](O)[C@@H]1O (stereo partly specified)" group="criterion met"

Does melting point meet or surpass 90 °C for `O=C(CO)[C@@H](O)[C@@H](O)[C@H](O)CO` ?
criterion met

Does melting point meet or surpass 90 °C for COc1ccc2cc(C(C)CO)ccc2c1 (stereo unspecified) [naproxol] ?
criterion not met

Does melting point meet or surpass 90 °C for `OCc1cccc(CO)c1` ?
criterion not met

Does melting point meet or surpass 90 °C for `CC(=O)N[C@@H](CCC(=O)O)C(=O)O` ?
criterion met

* * *

Rule: melting point of 200 °C or more gives Y; anything lower gives N.

Some entries whose results are on file:
molecule=OCCc1ccccc1 group=N
molecule=CC(C)c1ccc(/C=C/[N+](=O)[O-])cc1 group=N
molecule=CCC(CC)CO group=N

Does melting point meet or surpass 200 °C for C[C@]12CCC(O)CC1CC[C@@H]1[C@@H]2CC[C@@]2(C)[C@H]1CC[C@]2(O)C#Cc1ccccc1 (some centres undefined) ?
N

Does melting point meet or surpass 200 °C for `Oc1ccccc1C(F)(F)F` ?
N

Does melting point meet or surpass 200 °C for `O=[N+]([O-])c1ccc(I)cc1` ?
N

Does melting point meet or surpass 200 °C for `Nc1ccc(/N=N/c2ccc(/N=N/c3ccc(/N=N/c4ccc(/N=N/c5ccc(N)cc5)cc4)cc3)cc2)cc1` ?
Y

Does melting point meet or surpass 200 °C for O=[N+]([O-])c1ccccc1/C=C(/Cl)c1ccccn1 [2-[(E)-1-chloro-2-(2-nitrophenyl)ethenyl]pyridine] ?
N

Does melting point meet or surpass 200 °C for `O=C(O)c1ccccc1O` ?
N

Does melting point meet or surpass 200 °C for `O=[N+]([O-])c1ccc(N/N=C2/Cc3c2ccc2ccccc32)c([N+](=O)[O-])c1` ?
Y

Does melting point meet or surpass 200 °C for `c1ccc2c(c1)oc1ccccc12` ?
N
